// data source = PubChem BioAssay AID1159580

I'd appreciate it if you could supply normalized growth values for the items below.
Assay: chemical genetic growth profiling, strain panel (AID 1159580);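 also: tested at 20 µM; growth read once vehicle control cultures reached saturation at 30 °C; 1 = growth at the plate median or of vehicle wells; lower values mean less growth of the strain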
Settings: S. cerevisiae deletion strains, growth OD, locus YGR078C, strain PAC10, active compounds read low
The whole screen tested about 5,500 compounds, of which about 2,000 (36%) were called active. Roughly 18% stayed inconclusive and do not appear here. The list shows a part of the results.
Answers are plain numbers.

- compound: "COc1ccc(/C=N\\NC(=O)CC#N)cc1OC"
  normalized growth: 0.998
- compound: "COc1ccc2c(=O)c(CC(=O)O)coc2c1"
  normalized growth: 1.01
- compound: "CSC(=Nc1ccc(C(C)C)cc1)NC#N"
  normalized growth: 0.98

Please supply normalized growth for each of the following items, keeping them in order.
1. Cc1ncc([N+](=O)[O-])n1CCO
2. CCS(=O)(=O)CCn1c([N+](=O)[O-])cnc1C
3. Cc1cccc(N2C(=O)C3C4C=CC(C4)C3C2=O)n1 (stereo not drawn)
4. CC(=O)/C(=C\N(C)C)Sc1ccc(Cl)cc1
5. O=c1ccc2ccc(O)c(O)c2o1

0.98
1.03
1.01
0.817
0.994

# map each compound to its normalized growth
1. CC(C)=CCC1=C(O)c2ccccc2C(=O)C1=O
2. Cc1oc(-c2ccccc2)cc1C(=O)N1CCN(c2ccc(C(F)(F)F)cn2)CC1
3. CCOC(=O)CC1=Nn2c(nnc2-c2cc(Cl)cc(Cl)c2)SC1
4. O=c1[nH]c2ccccc2n1C1CCN(CCCC(c2ccc(F)cc2)c2ccc(F)cc2)CC1
5. CNC(=O)CSP(=S)(OC)OC
6. O=[N+]([O-])c1cc(C(F)(F)F)ccc1NCCCn1ccnc1
7. COc1ccc(-c2c(C(=O)O)sc(SC)c2C#N)cc1

[0.986, 0.963, 0.97, 0.967, 1.02, 1.03, 1.01]

Your task in this section: give normalized growth for each listed record.
1. Oc1ccc(C2CNCc3sccc32)cc1O (stereo not drawn)
2. O=c1[nH]c2ccccc2n1CCCN1CCN(C(c2ccccc2)c2ccccc2)CC1
3. COc1cc(O)c(C(C)=O)c(OC)c1
4. O=S(=O)(c1ccc(Cl)c(Cl)c1)N1CCN(c2ccc(C(F)(F)F)cn2)CC1
5. COc1ccccc1N1CCN(S(=O)(=O)c2ccc(C(F)(F)F)cc2)CC1
6. COc1ccc(Cc2nccc3cc(OC)c(OC)cc23)cc1OC
7. CC(O)CNc1ccc(C(F)(F)F)cc1[N+](=O)[O-] (stereo not drawn)

0.998
1.02
0.989
1.05
1
0.975
1.02

I would be grateful if you could provide normalized growth for each of the following entries.
1. O=c1[nH]c2ccccc2n1CCCN1CCC(n2c(=O)[nH]c3cc(Cl)ccc32)CC1
2. Cc1ccc(S(=O)(=O)Oc2cc(=O)n(C)c3ccccc23)cc1

1.01
0.955

###

Answer each item with its documented normalized growth.
Assay: chemical genetic growth profiling, strain panel (AID 1159580);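 also: tested at 20 µM; growth read once vehicle control cultures reached saturation at 30 °C; 1 = growth at the plate median or of vehicle wells; lower values mean less growth of the strain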
Details: S. cerevisiae deletion strains, growth OD, locus YKL009W, strain mrt4, active compounds read low
About 2,000 (36%) of roughly 5,500 compounds were called active. Another 18% or so got no clear call; they are omitted. Some of the results follow.

- compound: "O=c1cc(-c2ccc(O)cc2)oc2cc(O[C@@H]3O[C@H](CO)[C@@H](O)[C@H](O)[C@H]3O[C@@H]3OC[C@](O)(CO)[C@H]3O)cc(O)c12"
  property.label: "normalized growth"
  result: "0.986 (inactive)"

Record normalized growth per entry; entries follow.
1. Cc1cc(C)nc(NS(=O)(=O)c2ccc(N)cc2)n1
2. COC(=O)C[C@H]1C(C)(C)[C@@H](OC(C)=O)[C@@H]2CC3C4CC(=O)O[C@@H](c5ccoc5)[C@]4(C)CCC3[C@@]1(C)C2=O (some centres undefined)
3. C/C=C(\C)C(=O)OC1[C@@H]2C=C3C4CC(=O)O[C@@H](c5ccoc5)[C@]4(C)CCC3[C@@](C)(C2=O)[C@@H](C(O)C(=O)OC)C1(C)C (some centres undefined)

1: 0.961 (inactive); 2: 0.998 (inactive); 3: 1 (inactive)
